- Study system: recombinant human IL-13 (human, UniProt P35225 35-146)
- Sequence (P35225 35-146 limits assumed): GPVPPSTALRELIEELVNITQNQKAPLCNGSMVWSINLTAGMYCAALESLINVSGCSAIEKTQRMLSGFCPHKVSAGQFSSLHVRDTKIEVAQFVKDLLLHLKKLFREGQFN
- Assay protocol: cell-based or functional assay
One threshold, 0.05 nM, splits the recorded HEK-IL-13 [nM] (IC50, STAT6 reporter) values: lower ones are 1 (yes), equal or higher ones are 0 (no).

>  <Binder>
BDG38.101 (antibody, V domains shown) VH: QMQLVESGGGVVQPGRSLRLSCAASGFEFRTYGMHWVRQAPGKGLEWVGVIWYDGSATHYADSVKGRFTITRDNSKNTLNLQMNSLRVEDTAVYYCVRAPQWYLTAEAFDLWGQGTMVTVSS VL: SYILTQPPSVSVAPGETATITCGGNLIGARLVHWYQQKPGQAPVLVIYDDSDRPSRIPERFSGSNIGNTATLTISRVEEGDEADYYCQVWDYSSNTYVFGGGTKLTVL

>  <Discrete label>
1 (yes)

$$$$
>  <Binder>
BDG38.116 (antibody, V domains shown, IgG1) VH: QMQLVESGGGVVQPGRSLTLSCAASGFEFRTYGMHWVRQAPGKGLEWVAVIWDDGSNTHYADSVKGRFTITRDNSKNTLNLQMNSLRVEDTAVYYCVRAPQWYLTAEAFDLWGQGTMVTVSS VL: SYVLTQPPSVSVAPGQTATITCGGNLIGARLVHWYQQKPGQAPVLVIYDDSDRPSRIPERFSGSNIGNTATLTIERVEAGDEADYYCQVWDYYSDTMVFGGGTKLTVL

>  <Discrete label>
0 (no)

$$$$
>  <Binder>
BDG38.112 (antibody, V domains shown, IgG1) VH: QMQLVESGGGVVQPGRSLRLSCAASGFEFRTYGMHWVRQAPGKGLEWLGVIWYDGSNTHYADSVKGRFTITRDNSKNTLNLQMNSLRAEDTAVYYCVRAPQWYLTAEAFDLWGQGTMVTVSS VL: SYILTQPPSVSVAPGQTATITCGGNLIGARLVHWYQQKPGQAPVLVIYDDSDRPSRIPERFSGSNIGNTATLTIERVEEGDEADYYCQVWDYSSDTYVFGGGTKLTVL

>  <Discrete label>
1 (yes)

$$$$
>  <Binder>
BDG38.120 (antibody, V domains shown) VH: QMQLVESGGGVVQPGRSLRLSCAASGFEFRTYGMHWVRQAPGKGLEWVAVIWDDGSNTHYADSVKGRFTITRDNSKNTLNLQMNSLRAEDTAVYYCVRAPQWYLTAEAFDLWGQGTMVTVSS VL: SYILTQPPSVSVAPGETATITCGGNLIGARLVHWYQQKPGQAPVLVIYDDSDRPSRIPERFSGSNSGNTATLTISDVEAGDEADYYCQVWDYSSDHMVFGGGTKLTVL

>  <Discrete label>
0 (no)

$$$$
>  <Binder>
BDG38.074 (antibody, V domains shown, also called BDG38.74) VH: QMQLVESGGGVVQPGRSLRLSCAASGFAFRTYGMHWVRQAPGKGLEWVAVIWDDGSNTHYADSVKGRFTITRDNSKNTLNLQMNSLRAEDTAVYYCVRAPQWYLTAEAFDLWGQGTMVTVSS VL: SYVLTQPPSVSVAPGQTATITCGGNMIGAYLVHWYQQKPGQAPLLVVYDDVDRPNRIPERFSGSNSGNTATLTISRVEAGDEADYYCQVWDHNTDKMVFGGGTKLTVL

>  <Discrete label>
1 (yes)

$$$$
>  <Binder>
BDG38.134 (antibody, V domains shown, IgG1) VH: QMQLVESGGGVVQPGQSLRLSCAASGFEFRTYGMHWVRQAPGKGLEWLAVIWYDGSNTHYADSVKGRFTITRDNSKNTLNLQMNSLRAEDTAVYYCVRAPQWYNSAEAFDLWGQGTMVTVSS VL: SYVLTQPPSVSVAPGQTARITCGGNLIGARLVHWYQQKPGQAPVLVIYDDSDRPSHIPERFSGSNSGNTATLTISRVEAGDEADYYCQVWDYSADTMVFGGGTKLTVL

>  <Discrete label>
0 (no)

$$$$
>  <Binder>
BDG38.113 (antibody, V domains shown) VH: QMQLVESGGGVVQPGRSLTLSCAASGFEFRTYGMHWVRQAPGKGLEWVGVIWYDGSNTHYADSVKGRFTITRDNSKNTLNLQMNSLRAEDTAVYYCVRAPQWYLTAEAFDLWGQGTMVTVSS VL: SYVLTQPPSVSVAPGETATITCGGNLIGARLVHWYQQKPGQAPVLVIYDDSDRPSRIPERFSGSNIGNTATLTIEDVEEGDEADYYCQVWDYSSDSYVFGGGTKLTVL

>  <Discrete label>
1 (yes)

$$$$
>  <Binder>
BDG38.121 (antibody, V domains shown) VH: QMQLVESGGGVVQPGRSLRLSCAASGFEFRTYGMHWVRQAPGKGLEWVGVIWYDGSNTHYADSVKGRFTITRDNSKNTLNLQMNSLRAEDTAVYYCVRAPQWYLTAEAFDLWGQGTMVTVSS VL: SYILTQPPSVSVAPGETATITCGGNLIGARLVHWYQQKPGQAPVLVIYDDSDRPSRIPERFSGSNIGNTATLTISRVEAGDEADYYCQVWDYSSNTYVFGGGTKLTVL

>  <Discrete label>
0 (no)

$$$$
